- Experiment Summary: Kinetic solubility in DMSO solution at pH 4 by nephelometry
- Format: physicochemical
- Stated Conditions: read-out: Kinetic_solubility
Measure: solubility kinetic (µM)
I only need the number, in µM, no unit after it.

Give its solubility kinetic value. Item: CCN(CC)CCOc1cccc(Nc2nc(-c3ccc(Cl)cc3)cc(-c3ccc(Cl)cc3)n2)c1.Cl 372

###

- Study Target: Advanced glycosylation end product-specific receptor (Homo sapiens)
- Experiment Summary: Inhibition of biotinylated human RAGE assessed as bound amyloid beta level at 20 uM after 60 mins by ELISA relative to control
- Stated Conditions: values are per cent of control
Measure: residual binding, % of control (%)

>  <Compound>
OC1CCCN(CCOc2cccc(Nc3nc(-c4ccc(Cl)cc4)cc(-c4ccc(Cl)cc4)n3)c2)C1 (stereo not drawn)

>  <Units Text>
%

>  <residual binding, % of control>
52

$$$$
>  <Compound>
CCN(CCO)CCOc1cccc(Nc2nc(-c3ccc(Cl)cc3)cc(-c3ccc(Cl)cc3)n2)c1

>  <Units Text>
%

>  <residual binding, % of control>
101

$$$$
>  <Compound>
CN(C)CCOc1cccc(Nc2nc(-c3ccc(Cl)cc3)cc(-c3ccc(Cl)cc3)n2)c1

>  <Units Text>
%

>  <residual binding, % of control>
24

$$$$

(I) Clc1ccc(-c2cc(-c3ccc(Cl)cc3)nc(Nc3cccc(OCCN4CCCCC4)c3)n2)cc1
(II) CN1CCN(CCOc2cccc(Nc3nc(-c4ccc(Cl)cc4)cc(-c4ccc(Cl)cc4)n3)c2)CC1
When I and II are compared, which has the higher number for residual binding, % of control? Mark your selection by writing its label. I

(1) CN1CCN(c2cccc(Nc3nc(-c4ccc(Cl)cc4)cc(-c4ccc(Cl)cc4)n3)c2)CC1
(2) Clc1ccc(-c2cc(-c3ccc(Cl)cc3)nc(Nc3cccc(OCCN4CCCC4)c3)n2)cc1
(3) CC(C)(C)OC(=O)NC1CCN(CCOc2cccc(Nc3nc(-c4ccc(Cl)cc4)cc(-c4ccc(Cl)cc4)n3)c2)C1 (stereo not drawn)
Hello, I need these entries ordered by residual binding, % of control, highest reading first. Thanks! The reply should contain the labels ordered as requested. 2, 1, 3
(2: 114%, 1: 74%, 3: 46%)

###

- Study Target: Advanced glycosylation end product-specific receptor (Homo sapiens)
- Experiment Summary: Inhibition of biotinylated human RAGE assessed as bound amyloid beta level at 20 uM after 60 mins by ELISA relative to control
- Stated Conditions: values are per cent of control
Measure: residual binding, % of control (%)

>  <Compound>
NC1CCN(CCOc2cccc(Nc3nc(-c4ccc(Cl)cc4)cc(-c4ccc(Cl)cc4)n3)c2)C1 (stereo not given)

>  <Study Target>
Advanced glycosylation end product-specific receptor (Homo sapiens)

>  <Value>
106

$$$$
>  <Compound>
CCN(CCOC)CCOc1cccc(Nc2nc(-c3ccc(Cl)cc3)cc(-c3ccc(Cl)cc3)n2)c1

>  <Study Target>
Advanced glycosylation end product-specific receptor (Homo sapiens)

>  <Value>
88

$$$$

(a) CCN(CC)CCCOc1cccc(Nc2nc(-c3ccc(Cl)cc3)cc(-c3ccc(Cl)cc3)n2)c1
(b) CN(C)C1CCN(CCOc2cccc(Nc3nc(-c4ccc(Cl)cc4)cc(-c4ccc(Cl)cc4)n3)c2)C1.Cl (stereo not given)
(c) COC1CCCN(CCOc2cccc(Nc3nc(-c4ccc(Cl)cc4)cc(-c4ccc(Cl)cc4)n3)c2)C1 (stereo not given)
Hello, I need these entries ordered by residual binding, % of control, highest reading first. Thanks! The reply should contain the labels ordered as requested. b, a, c

Reference source for all entries: ChEMBL document CHEMBL3393050
